Hey, just so you know, these numbers are from ChEMBL document CHEMBL3774389.

molecules and their reported CC50
assay: Cytotoxicity against human MT2 cells assessed as cell viability by redox dye assay; type: cell-based

sample.smiles	CC50
C=C(C)[C@@H]1CC[C@]2(C(=O)O)CC[C@]3(C)[C@H](CC[C@@H]4[C@@]5(C)CC=C(c6ccc(C7(C(=O)O)CC7)cc6)C(C)(C)[C@@H]5CC[C@]43C)[C@@H]12	> 8 µM
C=C(C)[C@@H]1CC[C@]2(C(=O)O)CC[C@]3(C)[C@H](CC[C@@H]4[C@@]5(C)CC=C(c6ccn(CC(=O)O)n6)C(C)(C)[C@@H]5CC[C@]43C)[C@@H]12	> 30 µM
C=C(C)[C@@H]1CC[C@]2(CO)CC[C@]3(C)[C@H](CC[C@@H]4[C@@]5(C)CC=C(c6ccc(C(=O)O)c(C(=O)O)c6)C(C)(C)[C@@H]5CC[C@]43C)[C@@H]12	> 20 µM
